Reported Mean IC50 (Curve), RSV microneutralization values for a set of binders
tested.target: F protein of wild type RSV A/Long (respiratory syncytial virus, strain …, UniProt P12568 26-574)
Sequence (P12568 26-574): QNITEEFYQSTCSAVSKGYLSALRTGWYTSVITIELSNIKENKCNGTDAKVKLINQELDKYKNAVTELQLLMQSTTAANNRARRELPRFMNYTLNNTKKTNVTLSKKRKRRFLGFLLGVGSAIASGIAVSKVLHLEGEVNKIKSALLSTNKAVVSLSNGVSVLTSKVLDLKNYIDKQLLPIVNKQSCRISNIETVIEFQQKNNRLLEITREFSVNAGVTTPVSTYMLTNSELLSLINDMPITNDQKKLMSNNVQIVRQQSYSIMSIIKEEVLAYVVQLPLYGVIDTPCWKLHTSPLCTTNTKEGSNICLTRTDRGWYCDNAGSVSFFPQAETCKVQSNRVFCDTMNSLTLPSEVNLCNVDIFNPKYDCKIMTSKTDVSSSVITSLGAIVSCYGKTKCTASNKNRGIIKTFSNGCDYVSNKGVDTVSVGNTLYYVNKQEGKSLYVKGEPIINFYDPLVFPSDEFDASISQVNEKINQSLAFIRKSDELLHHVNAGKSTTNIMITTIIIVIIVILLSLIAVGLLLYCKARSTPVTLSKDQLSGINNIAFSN
method: cell-based or functional assay
# unit: µg/mL | format: bare number

binder="P12f4 (Fab) (Fab, V domains shown) VH: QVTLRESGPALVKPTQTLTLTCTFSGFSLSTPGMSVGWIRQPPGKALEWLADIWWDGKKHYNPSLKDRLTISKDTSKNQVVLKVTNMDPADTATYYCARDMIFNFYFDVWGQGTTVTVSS VL: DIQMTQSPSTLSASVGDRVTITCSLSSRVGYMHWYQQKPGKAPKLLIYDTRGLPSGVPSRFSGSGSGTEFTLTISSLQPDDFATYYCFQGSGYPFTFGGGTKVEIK" units_symbol=µg/mL numeric_result=0.0464

Kindly consider the entry below.
Can you share its Mean IC50 (Curve), RSV microneutralization? I mean this binder: A12a6 (monoclonal antibody) (antibody, V domains shown) VH: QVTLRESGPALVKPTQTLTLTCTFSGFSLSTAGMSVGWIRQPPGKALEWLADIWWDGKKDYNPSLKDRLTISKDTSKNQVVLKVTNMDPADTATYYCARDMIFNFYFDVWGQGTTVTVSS VL: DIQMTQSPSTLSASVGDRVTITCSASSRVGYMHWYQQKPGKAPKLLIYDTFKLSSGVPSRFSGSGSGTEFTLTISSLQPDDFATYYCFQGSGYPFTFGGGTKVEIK
0.0357
